- Test system: T-47D spheroids with HUVEC/MSC, viability
- experimentalProtocol: Anticancer human tumor T-47D cell line growth inhibition [PI3K]; active = viability on the fitted dose curve at most 10% of control; inactive = the rest;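 note: spheroids exposed to agents for seven days before reading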
- particulars: second compound 1 µM; first compound 0.316 µM
Labels: active, inactive

1. CC(C)NCC(C(=O)N1CCN(c2ncnc3c2C(C)CC3O)CC1)c1ccc(Cl)cc1 (configuration not stated) + CC(Nc1ncnc2nc[nH]c12)c1cc2cccc(Cl)c2c(=O)n1-c1ccccc1 :: inactive
2. CC1(C)CCC(Nc2ncc(C(F)(F)F)c(-c3c[nH]c4c(P(C)(C)=O)c(C#N)ccc34)n2)CN1 (configuration not stated) + Cc1nc(NC(=O)N2CCCC2C(N)=O)sc1-c1ccnc(C(C)(C)C(F)(F)F)c1 :: inactive
3. CNC(=O)c1ccc(N2C(=S)N(c3ccc(C#N)c(C(F)(F)F)c3)C(=O)C2(C)C)cc1F + Cc1nc(NC(=O)N2CCCC2C(N)=O)sc1-c1ccnc(C(C)(C)C(F)(F)F)c1 :: inactive
4. Cn1ncc(Cl)c1-c1cc(C(=O)NC(CN)Cc2cccc(F)c2)sc1Cl (configuration not stated) + Cc1nc(NC(=O)N2CCCC2C(N)=O)sc1-c1ccnc(C(C)(C)C(F)(F)F)c1 :: inactive
5. CNC(=O)c1ccc(N2C(=S)N(c3ccc(C#N)c(C(F)(F)F)c3)C(=O)C2(C)C)cc1F + COc1c(OCCCN2CCOCC2)ccc2c3n(c(=NC(=O)c4cnc(N)nc4)nc12)CCN3 :: active
6. C[C@@H](NC(=O)c1ncnc(N)c1Cl)c1ncc(C(=O)Nc2cc(C(F)(F)F)c(Cl)cn2)s1 + CC(Nc1ncnc2nc[nH]c12)c1cc2cccc(Cl)c2c(=O)n1-c1ccccc1 :: inactive
7. C=CC(=O)N1CCN(c2nc(=O)n(-c3c(C)ccnc3C(C)C)c3nc(-c4c(O)cccc4F)c(F)cc23)C(C)C1 (configuration not stated) + COc1c(OCCCN2CCOCC2)ccc2c3n(c(=NC(=O)c4cnc(N)nc4)nc12)CCN3 :: active
8. C=CC(=O)N1CCN(c2nc(=O)n(-c3c(C)ccnc3C(C)C)c3nc(-c4c(O)cccc4F)c(F)cc23)C(C)C1 (configuration not stated) + CC(Nc1ncnc2nc[nH]c12)c1cc2cccc(Cl)c2c(=O)n1-c1ccccc1 :: inactive
9. C=CC(=O)N1CCN(c2nc(=O)n(-c3c(C)ccnc3C(C)C)c3nc(-c4c(O)cccc4F)c(F)cc23)C(C)C1 (configuration not stated) + Cc1nc(NC(=O)N2CCCC2C(N)=O)sc1-c1ccnc(C(C)(C)C(F)(F)F)c1 :: inactive
10. CC(C)NCC(C(=O)N1CCN(c2ncnc3c2C(C)CC3O)CC1)c1ccc(Cl)cc1 (configuration not stated) + Cc1nc(NC(=O)N2CCCC2C(N)=O)sc1-c1ccnc(C(C)(C)C(F)(F)F)c1 :: inactive
11. C=CC(=O)N1CCN(c2nc(=O)n(-c3c(C)ccnc3C(C)C)c3nc(-c4c(O)cccc4F)c(F)cc23)C(C)C1 (configuration not stated) + CC(Nc1ccc2c(c1)OCCn1cc(N3C(=O)OCC3C(F)F)nc1-2)C(N)=O :: inactive
12. CC(C)NCC(C(=O)N1CCN(c2ncnc3c2C(C)CC3O)CC1)c1ccc(Cl)cc1 (configuration not stated) + COc1c(OCCCN2CCOCC2)ccc2c3n(c(=NC(=O)c4cnc(N)nc4)nc12)CCN3 :: active
13. Cn1nccc1Nc1nccc(-c2ccn(C(CO)c3ccc(Cl)c(F)c3)c(=O)c2)n1 (configuration not stated) + COc1c(OCCCN2CCOCC2)ccc2c3n(c(=NC(=O)c4cnc(N)nc4)nc12)CCN3 :: active
14. Cn1nccc1Nc1nccc(-c2ccn(C(CO)c3ccc(Cl)c(F)c3)c(=O)c2)n1 (configuration not stated) + CC(Nc1ncnc2nc[nH]c12)c1cc2cccc(Cl)c2c(=O)n1-c1ccccc1 :: inactive
15. C[C@@H](NC(=O)c1ncnc(N)c1Cl)c1ncc(C(=O)Nc2cc(C(F)(F)F)c(Cl)cn2)s1 + COc1c(OCCCN2CCOCC2)ccc2c3n(c(=NC(=O)c4cnc(N)nc4)nc12)CCN3 :: active
16. CC1(C)CCC(CN2CCN(c3ccc(C(=O)NS(=O)(=O)c4ccc(NCC5CCOCC5)c([N+](=O)[O-])c4)c(Oc4cnc5[nH]ccc5c4)c3)CC2)=C(c2ccc(Cl)cc2)C1 + Cc1nc(NC(=O)N2CCCC2C(N)=O)sc1-c1ccnc(C(C)(C)C(F)(F)F)c1 :: inactive
17. CC(Cn1ccc(-c2ccc(C#N)c(Cl)c2)n1)NC(=O)c1cc(C(C)O)[nH]n1 (configuration not stated) + CC(Nc1ccc2c(c1)OCCn1cc(N3C(=O)OCC3C(F)F)nc1-2)C(N)=O :: inactive

From: PubChem BioAssay AID1963959
